# TARGET OR TEST SYSTEM: human CB1 receptor (Homo sapiens)
# Construct: expressed in transfected cells; host or cells: HEK293
# Sequence (P21554 whole entry): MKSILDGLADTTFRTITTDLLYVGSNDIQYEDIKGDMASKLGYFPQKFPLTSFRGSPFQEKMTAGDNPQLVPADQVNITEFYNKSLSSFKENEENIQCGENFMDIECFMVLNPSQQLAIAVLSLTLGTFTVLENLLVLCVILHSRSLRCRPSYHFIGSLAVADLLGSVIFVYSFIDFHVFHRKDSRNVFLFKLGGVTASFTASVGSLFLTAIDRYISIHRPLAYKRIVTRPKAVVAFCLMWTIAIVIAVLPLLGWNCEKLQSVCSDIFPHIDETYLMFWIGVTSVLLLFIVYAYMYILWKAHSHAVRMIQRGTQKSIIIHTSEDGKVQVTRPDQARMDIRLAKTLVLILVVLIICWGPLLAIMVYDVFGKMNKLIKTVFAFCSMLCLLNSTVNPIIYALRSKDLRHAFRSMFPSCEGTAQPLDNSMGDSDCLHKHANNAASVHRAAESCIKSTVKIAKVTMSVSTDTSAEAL
# METHOD: bioSensAll GAPL-Gi2 BRET biosensor assay (antagonism of CP-55,940)
# Format: cell-based
# CONDITION DESCRIPTION: HEK293 cells transfected with hCB1 and GAPL-Gi2 biosensor, EC75 of CP-55,940 (0.1 nM), overnight incubation, read-out: CB1 wt Gi2 IC50
pIC50: −log10 of the molar value.
MEASUREMENT KIND: pIC50

COMPOUND: CN(C[C@H](O)CO)c1cc(N2CCC(C)(C(N)=O)CC2)n2nc(-c3ccccc3Cl)c(-c3ccc(Cl)cc3)c2n1 [Compound 67]
RECORDED NUMBER: 8.71
--
COMPOUND: CC(C)OC1(C(N)=O)CCN(c2cc(OCC(C)(C)O)nc3c(-c4ccc(Cl)cc4)c(-c4ccccc4Cl)nn23)CC1 [Compound 57]
RECORDED NUMBER: 8.98
--
COMPOUND: CC(C)Oc1cc(N(C)CCO)nc2c(-c3ccc(Cl)cc3)c(-c3ccccc3Cl)nn12 [Compound 12]
RECORDED NUMBER: 8.77
--
COMPOUND: CC(C)(O)COc1cc(N2CCN(S(=O)(=O)C(F)(F)F)CC2)n2nc(-c3ccccc3Cl)c(-c3ccc(Cl)cc3)c2n1 [Compound 15]
RECORDED NUMBER: 8.40
